target.system: CCR2 (Homo sapiens, UniProt P41597)
Construct: host or cells: THP-1 (human monocytic cell line)
Sequence (P41597 whole entry): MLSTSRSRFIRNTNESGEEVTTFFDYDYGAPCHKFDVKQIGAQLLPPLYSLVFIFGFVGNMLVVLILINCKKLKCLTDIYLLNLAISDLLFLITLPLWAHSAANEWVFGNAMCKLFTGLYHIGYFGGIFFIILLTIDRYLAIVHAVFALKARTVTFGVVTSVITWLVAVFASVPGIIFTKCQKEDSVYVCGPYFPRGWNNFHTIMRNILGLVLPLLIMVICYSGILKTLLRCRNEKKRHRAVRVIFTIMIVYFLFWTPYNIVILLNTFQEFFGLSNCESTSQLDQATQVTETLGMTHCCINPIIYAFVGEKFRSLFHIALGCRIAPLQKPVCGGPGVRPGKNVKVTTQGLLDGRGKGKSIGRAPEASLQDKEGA
assay.summary: MCP-1 Receptor Binding Assay in THP-1 Cells
measurement.conditions: read-out: MCP1B_v3 IC50
measured.endpoint: IC50 (nM)

Use these answered entries as a reference point.
COCCN[C@@H]1C[C@H]2CN(C(N)=O)C[C@@]2(C(=O)N2CCc3ncc(C(F)(F)F)cc3C2)C1; 5060
COC1COCCC1N[C@@H]1C[C@H]2CN(C(N)=O)C[C@@]2(C(=O)NCc2cccc(C(F)(F)F)c2)C1 (relative stereo); 320
COC1COCCC1N[C@@H]1C[C@H]2CN(C(=O)CCN(C)C)C[C@@]2(C(=O)N2CCc3ncc(C(F)(F)F)cc3C2)C1 (relative stereo); 230

(a) CCCOC(=O)N1C[C@@H]2C[C@@H](NC3CCOCC3OC)C[C@]2(C(=O)N2CCc3ncc(C(F)(F)F)cc3C2)C1 (relative stereo)
(b) COC1COCCC1N[C@@H]1C[C@H]2CN(C(=O)Nc3ccccc3)C[C@@]2(C(=O)N2CCc3ncc(C(F)(F)F)cc3C2)C1 (relative stereo)
(c) COC1COCCC1N[C@@H]1C[C@H]2CN(C(=O)OCCC#N)C[C@@]2(C(=O)N2CCc3ncc(C(F)(F)F)cc3C2)C1 (relative stereo)
Your job: order these 3 records by IC50, ascending. Would you mind listing the labels in the order asked for? a, c, b

* * *

target.system: CCR2 (Homo sapiens, UniProt P41597)
assay.summary: MCP-1 Receptor Binding Assay in THP-1 Cells
measurement.conditions: read-out: MCP1B_v3 IC50
Description: Compounds of the invention were subjected to various representative biological tests. […] MCP-1 Receptor Binding Assay in THP-1 Cells Human monocytic cell line THP-1 cells were obtained from American Type Culture Collection (Manassas, Va., USA). The THP-1 cells were grown in RPMI-1640 (RPMI: Roswell Park Memorial Institute Medium-cell culture growth media) supplemented with 10% fetal bovine serum in a humidified 5% CO2 atmosphere at 37° C. The cell density was maintained between […]. […]
measured.endpoint: IC50 (nM)

COC1COCCC1N[C@@H]1C[C@H]2CN(C(=O)CN(C)C)C[C@@]2(C(=O)N2CCc3ncc(C(F)(F)F)cc3C2)C1 (relative stereo) [Example 76]; 160

(A) COC1COCCC1N[C@@H]1C[C@H]2CN(C3CCOCC3OC)C[C@@]2(C(=O)N2CCc3ncc(C(F)(F)F)cc3C2)C1 (relative stereo) [Example 104]
(B) COC1COCCC1N[C@@H]1C[C@H]2CN(C3CCOCC3OC)C[C@@]2(C(=O)N2CCc3ccc(C(F)(F)F)cc3C2)C1 (relative stereo) [Example 105]
(C) COC1COCCC1N[C@@H]1C[C@H]2CN(C(=O)n3ccnc3)C[C@@]2(C(=O)N2CCc3ncc(C(F)(F)F)cc3C2)C1 (relative stereo) [Example 23]
Order field: IC50 | Direction: descending (largest first) Would you mind listing the labels in the order asked for? A, C, B

* * *

target.system: CCR2 (Homo sapiens, UniProt P41597)
assay.summary: MCP-1 Receptor Binding Assay in THP-1 Cells
measurement.conditions: read-out: MCP1B_v3 IC50
pIC50: −log10 of the molar value.
measured.endpoint: pIC50

Use these answered entries as a reference point.
COC1COCCC1N[C@@H]1C[C@H]2CN(S(=O)(=O)Cc3ccccc3)C[C@@]2(C(=O)N2CCc3ncc(C(F)(F)F)cc3C2)C1 (relative stereo); 5.96
COC1COCCC1N(C(=S)NCC(C)C)[C@@H]1C[C@H]2CN(C(=S)NCC(C)C)C[C@@]2(C(=O)N2CCc3ncc(C(F)(F)F)cc3C2)C1 (relative stereo); 7.05
CO[C@@H]1COCC[C@@H]1N[C@@H]1C[C@H]2CN(C(=O)/C=C/c3cccc(C(=O)O)c3)C[C@@]2(C(=O)N2CCc3ccc(C(F)(F)F)cc3C2)C1 (relative stereo); 8.00
COC1COCCC1N[C@@H]1C[C@H]2CN(C(=O)OCCC3CCOCC3)C[C@@]2(C(=O)N2CCc3ncc(C(F)(F)F)cc3C2)C1 (relative stereo); 7.52
COC1COCCC1N[C@@H]1C[C@H]2CN(C(=O)Oc3ccccc3)C[C@@]2(C(=O)N2CCc3ncc(C(F)(F)F)cc3C2)C1 (relative stereo); 6.82

(P) COC1COCCC1N[C@@H]1C[C@H]2CN(C(N)=O)C[C@@]2(C(=O)N2CCc3ccc(C(F)(F)F)cc3C2)C1 (relative stereo)
(Q) COC1COCCC1N[C@@H]1C[C@H]2CN(C3=NCCS3)C[C@@]2(C(=O)N2CCc3ncc(C(F)(F)F)cc3C2)C1 (relative stereo)
(R) C#CC(=O)N1C[C@@H]2C[C@@H](NC3CCOCC3OC)C[C@]2(C(=O)N2CCc3ncc(C(F)(F)F)cc3C2)C1 (relative stereo)
Order field: pIC50 | Direction: descending (largest first) Would you mind listing the labels in the order asked for? P, R, Q
